interaction score values by entry
Biological target: T1, 4H1845-AA
T1 chain: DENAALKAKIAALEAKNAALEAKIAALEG
Assay: two-hybrid library CCmax;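 also: natural log of median RNA to DNA barcode read ratio; higher means stronger binding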
Details: mean of both orientations
// print number alone

Exam item: Can you look up the measured interaction score of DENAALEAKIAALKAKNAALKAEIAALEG [4H1401-AA] for me?
Marked response: -1.13

Source of measurements: paper PMC10397247
